# Tested on: Meloidogyne hapla J2
# procedureDetails: proportion of mobile M. hapla J2 relative to DMSO control (fraction of DMSO control); higher = more viable, less nematicidal, active = 0.7 or less
# conditionSummary: 60 µM; 5 days; temperature: 20 °C
Entry note: the call must match one of active, inactive

As a guide, the following entries are already answered.
{"columns": ["compound", "class"],
 "data": [
  ["CCOc1cc(-c2nc(-c3ccc(OC)cc3)no2)cc(OCC)c1OCC", "inactive"],
  ["Cc1ccc(-c2nnc(SCC(=O)NCc3ccccc3)o2)cc1", "inactive"],
  ["COc1ccc(Cl)cc1-c1noc(COc2ccccc2C)n1", "inactive"],
  ["CCc1ccc(OCc2nc(-c3ccc(C)cc3)no2)cc1", "inactive"],
  ["COc1ccc(-c2noc(-c3ccccc3Br)n2)cc1", "inactive"]
]}

Query :: Per the records of this test, what outcome belongs to "COc1ccc(-c2nnc(SCC(=O)Nc3ccc(C)cc3Br)o2)cc1" ?
Result :: inactive

Query :: What was the test verdict on "COc1ccc(-c2nnc(SCC(=O)Nc3ccccc3F)o2)cc1" ?
Result :: inactive

Query :: Assay result, entry "Cn1c(SCc2nc(-c3cccs3)no2)nnc1-c1ccco1" — outcome?
Result :: inactive

Query :: Answer briefly: the call reported for "Fc1cccc(Cl)c1CSc1nnc(-c2ccccc2Cl)o1" in this assay.
Result :: inactive

Query :: What classification did "Cc1c(C(=O)CSc2nnc(-c3ccccc3)o2)c2ccccc2n1C" end up with in this test?
Result :: inactive

Query :: Which result was noted for this compound in the test: "Cc1cc(OCc2nc(-c3ccccn3)no2)ccc1Br"
Result :: inactive

Query :: Assay outcome for "O=C(CSc1nnc(-c2ccccc2Cl)o1)Nc1ccccn1" : what was it?
Result :: inactive

Query :: Kindly provide the recorded test outcome for the following compound: "CCOc1ccc(-c2nc(-c3ccccc3C)no2)cc1"
Result :: active

====

# Tested on: Meloidogyne hapla J2
# procedureDetails: proportion of mobile M. hapla J2 relative to DMSO control (fraction of DMSO control); higher = more viable, less nematicidal, active = 0.7 or less
# conditionSummary: 60 µM; 5 days; temperature: 20 °C
Would you mind answering with one of these outcomes? active, inactive

{"columns": ["smiles", "class"],
 "data": [
  ["O=C(CSc1nnc(-c2cccc(Br)c2)o1)NC1CCCCC1", "inactive"]
]}

Query :: For this molecule, state the assay outcome: "c1ccc(-c2nnc(SCc3nc4ccccc4[nH]3)o2)cc1"
Result :: inactive

Query :: Just curious, what result did "COc1ccc(-c2noc(-c3ccccc3C(=O)Nc3cccc(C)c3C)n2)cc1" get here?
Result :: inactive

Query :: What did this assay record as the result for "COc1ccccc1-c1nnc(SCc2ccc(F)cc2)o1" ?
Result :: active

Query :: Write down the call the test reported for this molecule. Item: "Cc1ccc(-c2nc(-c3ccc(C(F)(F)F)cc3)no2)cc1"
Result :: inactive

Query :: Please indicate how the test categorized "CCOc1cc(-c2nc(-c3cc4ccccc4nc3OC)no2)cc(OCC)c1OCC" .
Result :: inactive

Query :: Outcome logged for "Cc1cccc(C)c1NC(=O)CSc1nnc(-c2ccncc2)o1" in this assay:
Result :: inactive

Query :: For this molecule, state the assay outcome: "Cc1ccc(OCc2nc(-c3ccccn3)no2)cc1C"
Result :: inactive

Query :: Recorded test call requested for "O=C(CSc1nnc(-c2ccco2)o1)Nc1ccc(Br)cn1"
Result :: inactive

Query :: So what was the verdict on "CCCCCSc1nnc(-c2ccc(Cl)cc2Cl)o1" in this test?
Result :: inactive

Query :: Outcome logged for "O=C(CSc1nnc(-c2ccncc2)o1)Nc1cc(C(F)(F)F)ccc1Cl" in this assay:
Result :: inactive

Query :: Give the logged outcome of this assay for the following molecule: "CCCCc1nc(-c2ccc(-c3ccc(C)cc3)nc2OC)no1"
Result :: inactive
